The measurements presented in this section are drawn from ChEMBL document CHEMBL1149258.

target: Histamine H1 receptor (Mus musculus) (UniProt P70174); assay: Ex vivo displacement of [3H]mepyramine from brain histamine H1 receptor in orally dosed Swiss Albino mouse; format: functional, organism-based
Sequence (P70174 whole entry): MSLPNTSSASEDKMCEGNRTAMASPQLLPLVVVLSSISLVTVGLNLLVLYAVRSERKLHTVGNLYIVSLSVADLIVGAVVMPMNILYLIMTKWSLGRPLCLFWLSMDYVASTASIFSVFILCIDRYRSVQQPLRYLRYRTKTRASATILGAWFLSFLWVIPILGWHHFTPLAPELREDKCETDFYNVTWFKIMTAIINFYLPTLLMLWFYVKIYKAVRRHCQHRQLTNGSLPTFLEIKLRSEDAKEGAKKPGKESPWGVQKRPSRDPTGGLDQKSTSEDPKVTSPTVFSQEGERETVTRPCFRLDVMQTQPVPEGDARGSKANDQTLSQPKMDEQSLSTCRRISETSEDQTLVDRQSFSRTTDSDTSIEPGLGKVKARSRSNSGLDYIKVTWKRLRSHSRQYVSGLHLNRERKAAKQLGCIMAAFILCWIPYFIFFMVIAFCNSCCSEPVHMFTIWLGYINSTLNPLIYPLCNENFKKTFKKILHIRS
Assay Metric: ED50 (mg/kg)
Use mg/kg as the unit, but write only the number.

Notebook: pull reported ED50 for Histamine H1 receptor (Mus musculus) (UniProt P70174), entry `CCOCCn1cc(C2CCN(Cc3ccc(C(=O)O)cc3)CC2)c2ccccc21`
4.5

Form entry - test system: Histamine H1 receptor (Mus musculus) (UniProt P70174); read-out: ED50; compound: `COCCn1cc(C2CCN(Cc3ccc(OC)c(C(=O)O)c3)CC2)c2ccccc21`
9.5

Histamine H1 receptor (Mus musculus) (UniProt P70174) / ED50 / `CCCCn1cc(C2CCN(CCOc3ccccc3C(=O)O)CC2)c2ccccc21` : value?
100

Provide value of ED50 for this record tested with Histamine H1 receptor (Mus musculus) (UniProt P70174): `COc1ccc(CN2CCC(c3cn(Cc4cccs4)c4ccccc34)CC2)cc1C(=O)O`
11.5

Histamine H1 receptor (Mus musculus) (UniProt P70174) / ED50 / `COc1ccc(CN2CCC(c3cn(Cc4ccoc4)c4cc(F)ccc34)CC2)cc1C(=O)O` : value?
7

Could you share what ED50 was measured for `COCCn1cc(C2CCN(CCOc3ccccc3C(=O)O)CC2)c2ccc(F)cc21` , tested on Histamine H1 receptor (Mus musculus) (UniProt P70174)?
40

Param readout = ED50; param system = Histamine H1 receptor (Mus musculus) (UniProt P70174); param query = `COc1ccc(CN2CCC(c3cn(Cc4cccs4)c4cc(F)ccc34)CC2)cc1C(=O)O` ; response: value
29

Please tell me: ED50 of `COc1ccc(CN2CCC(c3cn(Cc4ccc(Cl)s4)c4cc(F)ccc34)CC2)cc1C(=O)O` , system Histamine H1 receptor (Mus musculus) (UniProt P70174)?
5.5

Hi! What's the reported ED50 for `CCOCCn1cc(C2CCN(CCOc3ccccc3C(=O)O)CC2)c2ccccc21` on Histamine H1 receptor (Mus musculus) (UniProt P70174)?
8

Lookup: ED50 / Histamine H1 receptor (Mus musculus) (UniProt P70174) / `CCOCCn1cc(C2CCN(Cc3ccc(F)c(C(=O)O)c3)CC2)c2ccccc21`
0.5
